Reference source: PubChem BioAssay AID504882

system: EBV lymphoblastoid cells (LCL) viability, plate reader; assay: cytotoxicity in EBV lymphoblastoid cells, dose response, cytotoxicity control, cell-based, plate reader, cherry-picks, set 2 (AID 504882)
Results filed as inconclusive are left out.
measured quantity: AC50

Previously resolved entries follow.
COc1ccccc1-c1nnc(Sc2nc([N+](=O)[O-])nn2C)o1; 8.25 µM
C#CCN(C[C@@H]1[C@@H](OC(=O)NCCCCCC)[C@@H](OC(=O)NCCCCCC)Cn2c(=O)ccc(=O)n21)S(=O)(=O)c1ccc(C)cc1; 3.98 µM
O=C(/C=C/c1ccco1)Oc1cc(Br)cc(/C=N/NC(=O)c2ccccc2O)c1; 6.29 µM
CC(=NNC(=S)N1CCCC1)c1ccccn1; 0.037 µM
Fc1ccc2[nH]c3c(N4CCSCC4)ncnc3c2c1; 17.5 µM

Please give AC50, item by item, for the list that follows.
1. CC(C)OC(=O)c1ccc(NCc2cc(O)ccc2O)cc1Cl
2. COc1ccccc1-c1nc(-c2ccccn2)no1
3. COc1ccc(O)c(/C=N/Nc2nc(Nc3ccccc3)nc(-n3nc(C)cc3C)n2)c1
4. COc1ccc(Cn2c(SCc3cc(C)ccc3C)nc3cc(OC)c(OC)cc3c2=N)cc1
5. CCN(CC)c1ccc(/C=N/NC(=O)c2ccc3nc[nH]c3c2)c(O)c1

Response line:
5.06 µM
10.8 µM
10.7 µM
6.5 µM
4.14 µM

* * *

system: EBV lymphoblastoid cells (LCL) viability, plate reader; assay: cytotoxicity in EBV lymphoblastoid cells, dose response, cytotoxicity control, cell-based, plate reader, cherry-picks, set 2 (AID 504882)
Inconclusive results are not listed.
For each record, write down the corresponding AC50.

Worked cases, answers included:
CCOC(=O)CC(NC(=O)C(Cc1ccc(N(CCCl)CCCl)cc1)NC(C)=O)C(=O)OCC (stereo unspecified); 5.68 µM
O=C(N/N=C/c1cc2c3c(c1O)CCCN3CCC2)c1ccccc1O; 3.05 µM
CC(C)CC(=NNC(=O)c1ccncc1)c1cc(Cl)ccc1O; 3.19 µM
CCCCC(=O)NC(c1ccc(Cl)cc1)c1ccc2cccnc2c1O (stereo unspecified); 3.65 µM
Oc1ccc(C=NNC(=S)Nc2ccccc2)nc1; 13 µM

Next:
Prompt line: If you can, please state the reported AC50 value of CCC(=O)NC(c1cc(Cl)c2cccnc2c1O)C(C)C (stereo unspecified) .
Response line: 6.78 µM

* * *

test system: EBV lymphoblastoid cells (LCL) viability, plate reader; assay: cytotoxicity in EBV lymphoblastoid cells, dose response, cytotoxicity control, cell-based, plate reader, cherry-picks, set 2 (AID 504882)
Records with an inconclusive call do not appear. The source made the active and inactive calls. How the calls were made is not given here.
Outcome (select one): 1 for active, -1 for inactive

Prompt line: Returns: the outcome recorded for CC(=O)NC(c1cccs1)c1cc(F)c2cccnc2c1O (stereo unspecified) in this assay.
Response line: 1

Prompt line: Same again, this time with CC(=O)OC1CCC2(C)C(CCC3C4CC=C(C(C)=O)C4(C)OC(=O)CC32)C1 (stereo unspecified)
Response line: 1

Prompt line: And Cc1cccc(-n2ncc(Cl)c(Cl)c2=O)c1 ?
Response line: 1

Prompt line: Do the same for CCOC(=O)c1c(CSc2nc(C)cc(C)c2C#N)n(C)c2cc(Br)c(OC(C)=O)cc12 please
Response line: 1

Prompt line: Query CCc1cc(C(=O)Nc2ncccc2O)sc1C next
Response line: -1

* * *

test system: EBV lymphoblastoid cells (LCL) viability, plate reader; test: cytotoxicity in EBV lymphoblastoid cells, dose response, cytotoxicity control, cell-based, plate reader, cherry-picks, set 2 (AID 504882)
Inconclusive results are not listed.
For each of the compounds below, state its AC50.

Answered cases to consult:
CCOc1ccc(C(=O)Nc2cc(C)ccn2)cc1; 9.64 µM
O=c1c2c(nc3c(-c4ccc(Cl)cc4)c[nH]n13)CCCC2; 2.44 µM
CCn1c2ccccc2c2cc(/C=N/NC(=O)c3ccncc3)ccc21; 3.31 µM
O=C(CCc1ccccc1)NC(c1cccs1)c1cc(Cl)c2cccnc2c1O (stereo unspecified); 7.03 µM
CCN(CC)c1ccc(/C=N/NC(=O)c2c(Cl)cnn2C)c(O)c1; 3.19 µM
O=C(/C=C1\NC2(CCCC2)Cc2ccccc21)C(=O)N/N=C/c1ccccc1O; 18 µM
COc1ccc(O)c(/C=N/NC(=O)c2ccc(OCc3cccc(Br)c3)cc2)c1; 4.03 µM
O=C(Nc1ccc(N2CCOCC2)cc1)c1cn2ccccc2n1; 10.9 µM
CN(C)c1ccc(C=Cc2ccnc3c(O)cccc23)cc1; 10.5 µM
CCn1c2ccccc2c2cc(/C=N/n3cnnc3)ccc21; 10.7 µM

Now turn to the next compound.
Prompt line: Dear colleague, I am looking for the recorded AC50 of the following compound: CC(=NNc1nc2ccccc2o1)c1ncccn1
Response line: 0.384 µM

* * *

system: EBV lymphoblastoid cells (LCL) viability, plate reader; experiment: cytotoxicity in EBV lymphoblastoid cells, dose response, cytotoxicity control, cell-based, plate reader, cherry-picks, set 2 (AID 504882)
Results filed as inconclusive are left out. Active and inactive are the calls of the source. No rule for the calls is given here.
Respond with a class label; see y for active, n for inactive

Here are 5 molecules together with their reported answers.
Oc1cccc(C(Nc2nccs2)c2ccc3cccnc3c2O)c1 (stereo unspecified); y
CN=C1S/C(=C\c2ccc(O)c(Br)c2)C(=O)N1C; n
CCc1sc(C(=O)Nc2nc(-c3ccccn3)cs2)cc1C; y
CCOc1ccc(/C=C/[N+](=O)[O-])c2ccccc12; y
COc1ccc(/C=C/c2nc3ccccc3n2C)cc1; y

Prompt line: // return assay outcome for CC1=C(C(=O)OCc2ccc3c(c2)OCO3)C(c2ccc(Cl)cc2)NC(=O)N1 (stereo unspecified)
Response line: y

* * *

system: EBV lymphoblastoid cells (LCL) viability, plate reader; assay: cytotoxicity in EBV lymphoblastoid cells, dose response, cytotoxicity control, cell-based, plate reader, cherry-picks, set 2 (AID 504882)
Records with an inconclusive call do not appear. The source made the active and inactive calls. No rule for the calls is given here.
measured quantity: AC50

Give AC50 for each of the items listed below.
1. CCN1CCN(Cc2ccc(NC(=O)c3ccc(C)c(NC(=O)c4c[nH]c5cc(C(F)(F)F)ccc5c4=O)c3)cc2C(F)(F)F)CC1
2. Cc1ccc2nc(-c3ccccn3)[nH]c2c1
3. C(=Cc1cnc2ccccc2n1)c1ccc2c(c1)OCO2
4. Clc1ccc(-n2nnnc2Sc2ncnc3sccc23)cc1
5. O=c1cc(-c2ccccc2)oc2ccc3ccccc3c12
6. C#CCN(C[C@@H]1[C@@H](OC(=O)NCC2CCCCC2)[C@@H](OC(=O)NCC2CCCCC2)Cn2c(=O)ccc(=O)n21)S(=O)(=O)c1ccc(C)cc1
7. Cc1ccc(/C=N/NC(=O)c2cc(-c3ccccc3)nc3ccccc23)o1
8. CCn1c2ccccc2c2cc(/C=N/n3c(C)nnc3C)ccc21

Response line:
1: 3.95 µM; 2: 19.5 µM; 3: 6.12 µM; 4: 8.53 µM; 5: 8.53 µM; 6: 3.84 µM; 7: > 19.5 µM (inactive); 8: > 19.5 µM (inactive)

* * *

Assign AC50 to each entry below.
tested on: EBV lymphoblastoid cells (LCL) viability, plate reader; assay: cytotoxicity in EBV lymphoblastoid cells, dose response, cytotoxicity control, cell-based, plate reader, cherry-picks, set 2 (AID 504882)
Results filed as inconclusive are left out. The source made the active and inactive calls. How the calls were made is not given here.

Before answering, review these 5 worked examples.
c1ccc(C2=NNC(=NC3CC3)SC2)cc1; 11.9 µM
Oc1ccc2ccccc2c1N=Nc1ccccn1; 4.54 µM
c1ccc(-c2nc(-c3ccccn3)no2)cc1; 9.22 µM
CCCCC(=O)NC(c1cccc([N+](=O)[O-])c1)c1ccc2cccnc2c1O (stereo unspecified); 5.14 µM
COc1ccc2[nH]c(C(=O)N/N=C/c3ccc(O)cc3O)cc2c1; 16 µM

For each of the molecules below, note its AC50.
1. S=C(NN=Cc1ccccn1)Nc1ccccn1
2. COc1cc(C=C2CCCC(=Cc3ccc(OCC4CO4)c(OC)c3)C2=O)ccc1OCC1CO1 (stereo unspecified)
3. COc1ccc(/C=N/Nc2cc(C)nc3ccc(OC)cc23)c(OC)c1
4. Oc1cccc2ccc(Nc3ccccn3)nc12
5. COc1ccc(C(=O)NC2CCCc3c2cnn3-c2cccc(C)c2C)c(OC)n1 (stereo unspecified)

Response line:
1. 9.02 µM
2. 5.45 µM
3. 3.47 µM
4. 6.35 µM
5. 1.22 µM

For each of the items listed, what is its AC50?
1. CCCC(=O)NC(c1ccc(C(C)C)cc1)c1ccc2cccnc2c1O (stereo unspecified)
2. O=C(N/N=C/c1ccc(O)cc1O)c1ccc(CN2C(=O)c3cccc4cccc2c34)cc1
3. CCCc1c(C(=O)N/N=C(\C)c2ccccn2)nnn1-c1nonc1N
4. COc1ccc(CNC(=O)N2[C@H]3CC[C@@H]2C=C(c2ccc(F)cc2OCc2ccccc2)C3)cc1OC
5. Cc1cc(=O)[nH]c(NN=Cc2cc(Br)ccc2O)n1
6. Cn1nnnc1N=N/C(=N/Nc1ccccc1)c1ccccc1
7. Cc1cc(Sc2nnc(/N=C/N(C)C)s2)c2ccccc2n1
8. CCOC(=O)c1c2c(n(C)c1C)C(=O)C(=O)c1ccc(Br)cc1-2

Response line:
["1.74 µM", "3.53 µM", "1.57 µM", "2.3 µM", "3.92 µM", "1.71 µM", "9.16 µM", "1.95 µM"]

# map each molecule to its AC50
1. COc1ccc(-c2nnc(NC(=O)c3ccc(S(=O)(=O)N4CCCc5ccccc54)cc3)o2)cc1
2. CC(C)C(=O)NC(c1ccc(Cl)cc1Cl)c1ccc2cccnc2c1O (stereo unspecified)
3. CNc1cccnc1C=NNC(N)=S

Response line:
["15 µM", "2.28 µM", "7.97 µM"]

Could you report AC50 for every entry in the following list?
1. CC(=NNC(=S)Nc1ccc(C)cc1)c1ccccn1
2. NC(=S)NN=Cc1nccc2c(N)cccc12
3. CCCCC(=O)NC(c1ccc(OC)c(OC)c1)c1ccc2cccnc2c1O (stereo unspecified)
4. O=C(N/N=C/c1c(O)ccc2ccccc12)c1ccc(Br)o1
5. CCOc1ccc(C(C)=O)cc1COc1cccnc1[N+](=O)[O-]

Response line:
0.269 µM
1.04 µM
5.63 µM
6.22 µM
> 19.5 µM (inactive)
